- MEASURED_ON: T1, PUF4 RNA-binding domain (Saccharomyces cerevisiae, UniProt P25339 537-888)
- T1 sequence: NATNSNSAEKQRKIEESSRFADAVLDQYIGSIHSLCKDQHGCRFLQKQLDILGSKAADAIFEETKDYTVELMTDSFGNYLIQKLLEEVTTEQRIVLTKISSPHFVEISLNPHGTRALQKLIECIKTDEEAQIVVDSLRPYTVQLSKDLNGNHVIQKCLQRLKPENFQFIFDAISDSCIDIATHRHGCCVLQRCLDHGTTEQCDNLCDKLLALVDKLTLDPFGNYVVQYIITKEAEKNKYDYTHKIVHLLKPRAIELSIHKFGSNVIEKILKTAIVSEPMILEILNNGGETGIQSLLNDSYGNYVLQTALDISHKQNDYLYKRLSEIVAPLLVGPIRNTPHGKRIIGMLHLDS
- TEST_SUMMARY: Mg; RNA-MaP; 20 mM Na-HEPES pH 7.4, 30 mM KOAc, 0.75 mM MgCl2, 0.1% Tween-20, 5% glycerol, 0.1 mg/mL BSA, 2 mM DTT; 25 C; 0.0125-409.6 nM protein
- CONDITION_CONTEXT: tags: N-His6-TEV cleaved; C-SNAP kept, Cy3B-labelled; label: tethered on chip by stalled RNA polymerase

{"BINDER": "UCUCUUUGUACUCAUUCUCUU (ssRNA) [Ic_S1_P4E.1_K4.1_C4.1_H4.1_A4.1_[T5C]_[A6T]_[T7C]_F4.1_[T8A]_[A9T]_T4.1]", "READOUT_RELATION": "=", "Kd / nM": 150}
{"BINDER": "Ib_S2_P3E.1_K3.1_C3.1_H3.1_[T1G]_[A4G]_A3.1_F3.1_T3.1 (ssRNA) RNA: UUUGAUUAAUAUGAUAUCGUUCUUUCUGGUGUAUAUUCUUUCUCGAUAUCAUAUUAAUCUUU", "READOUT_RELATION": "=", "Kd / nM": 10.7}
{"BINDER": "Id_ii_S2_P4E.4_K4.3_C4.2_[C-2A]_[T-1A]_H4.3_A4.1_F4.1_T4.2_[G10C] (ssRNA) RNA: UUUGAUUAAUAUGAUAUCGUUCUUUCUAAACACUAUUACUUUCUUUCUCGAUAUCAUAUUAAUCUUU", "READOUT_RELATION": ">", "Kd / nM": 2300}
{"BINDER": "Id_ii_S2_P5E.3_K5.2_C5.2_[C-2A]_[T-1A]_H5.2_A5.1_F5.1_T5.2_[T11C]_[A12G] (ssRNA) RNA: UUUGAUUAAUAUGAUAUCGUUCUUUCUAAUAUAUUAUUACGUUCUUUCUCGAUAUCAUAUUAAUCUUU", "READOUT_RELATION": ">", "Kd / nM": 2300}
{"BINDER": "ACAAACUCUAUAUAUUAUCACAAAC (ssRNA) [Id_ii_S3_P4E.3_K4.2_C4.2_[C-2T]_[T-1C]_H4.2_A4.1_F4.1_T4.2_[G10T]_[T11C]]", "READOUT_RELATION": "=", "Kd / nM": 16.3}
{"BINDER": "Ie_S2_P5E.1_K5.1_C5.1_H5.1_A5.1_[+7CCTCT]_F5.1_T5.1 (ssRNA) RNA: UUUGAUUAAUAUGAUAUCGUUCUUUCUUGUAUUACCUCUUUAUUCUUUCUCGAUAUCAUAUUAAUCUUU", "READOUT_RELATION": "=", "Kd / nM": 57.6}
{"BINDER": "Ie_S2_P5E.1_K5.1_C5.1_H5.1_A5.1_[+6TCTCT]_F5.1_T5.1 (ssRNA) RNA: UUUGAUUAAUAUGAUAUCGUUCUUUCUUGUAUUUCUCUAUUAUUCUUUCUCGAUAUCAUAUUAAUCUUU", "READOUT_RELATION": "=", "Kd / nM": 12.9}
{"BINDER": "UCUCUUUGUAUUUACUCUCUU (ssRNA) [Ic_S1_P4E.1_K4.1_C4.1_H4.1_A4.1_[A6T]_F4.1_[T8A]_[A9C]_T4.1]", "READOUT_RELATION": "=", "Kd / nM": 74.9}
{"BINDER": "ACAAACCAACACUAUUAGCACAAAC (ssRNA) [Id_ii_S3_P4E.4_K4.3_C4.2_[T-1A]_H4.3_A4.1_F4.1_T4.2_[T11C]]", "READOUT_RELATION": ">", "Kd / nM": 2300}
{"BINDER": "UCUCUUUCUUGUAUAUAUUUCUCUU (ssRNA) [Id_iii_S1_P3E.5_K3.1_C3.3_H3.1_A3.1_F3.1_T3.2_[A10T]]", "READOUT_RELATION": "=", "Kd / nM": 6.04}
{"BINDER": "Ib_S4_P3E.1_K3.1_C3.1_H3.1_[G2C]_[A4G]_A3.1_F3.1_T3.1 (ssRNA) RNA: UUUGACAACUGAUCGUUCUUUCUUCUGUAUAUUCUUUCUCGAUCAGUUGUCUUU", "READOUT_RELATION": "=", "Kd / nM": 2.45}
{"BINDER": "ACAAACCAACACUUAUUACUACAAAC (ssRNA) [Id_ii_S3_P5E.4_K5.3_C5.2_[T-1A]_H5.3_A5.1_F5.1_T5.2_[T11C]_[A12T]]", "READOUT_RELATION": ">", "Kd / nM": 2300}
{"BINDER": "Id_ii_S4_P4E.4_K4.3_C4.2_H4.3_A4.1_F4.1_T4.2_[G10C]_[T11A] (ssRNA) RNA: UUUGACAACUGAUCGUUCUUUCUCUACACUAUUACAUUCUUUCUCGAUCAGUUGUCUUU", "READOUT_RELATION": "=", "Kd / nM": 944}
{"BINDER": "Ib_S2_P5E.1_K5.1_C5.1_H5.1_[T3C]_A5.1_[A7G]_F5.1_T5.1 (ssRNA) RNA: UUUGAUUAAUAUGAUAUCGUUCUUUCUUGCAUUGUUAUUCUUUCUCGAUAUCAUAUUAAUCUUU", "READOUT_RELATION": "=", "Kd / nM": 1600}
{"BINDER": "Ie_S2_P4E.1_K4.1_C4.1_H4.1_[+3CTT]_A4.1_F4.1_T4.1 (ssRNA) RNA: UUUGAUUAAUAUGAUAUCGUUCUUUCUUGUCUUAUAUUAUUCUUUCUCGAUAUCAUAUUAAUCUUU", "READOUT_RELATION": "=", "Kd / nM": 14.4}
{"BINDER": "UCUCUUUGUACAUGUUCUCUU (ssRNA) [Ic_S1_P4E.1_K4.1_C4.1_H4.1_A4.1_[T5C]_F4.1_[T8G]_[A9T]_T4.1]", "READOUT_RELATION": "=", "Kd / nM": 20.9}
{"BINDER": "UCUCUUCCUAUAUAUUAUUUCUCUU (ssRNA) [Id_ii_S1_P4E.3_K4.2_C4.2_[T-1C]_H4.2_A4.1_F4.1_T4.2_[G10T]]", "READOUT_RELATION": "=", "Kd / nM": 26.9}
{"BINDER": "UCUCUUUGUAUGCGUUCUCUU (ssRNA) [Ic_S1_P4E.1_K4.1_C4.1_H4.1_A4.1_[A6G]_[T7C]_F4.1_[T8G]_[A9T]_T4.1]", "READOUT_RELATION": "=", "Kd / nM": 1210}
{"BINDER": "Ib_S2_P3E.1_K3.1_C3.1_H3.1_A3.1_[T5C]_F3.1_[T7A]_T3.1 (ssRNA) RNA: UUUGAUUAAUAUGAUAUCGUUCUUUCUUGUACAAAUUCUUUCUCGAUAUCAUAUUAAUCUUU", "READOUT_RELATION": "=", "Kd / nM": 58.4}
{"BINDER": "Id_ii_S4_P3E.2_K3.1_C3.2_[C-2A]_H3.1_A3.1_F3.1_T3.2_[A10G] (ssRNA) RNA: UUUGACAACUGAUCGUUCUUUCUAUUGUAUAUAUGUUCUUUCUCGAUCAGUUGUCUUU", "READOUT_RELATION": "=", "Kd / nM": 10.6}
{"BINDER": "UCUCUUUGUAUAGUUAUCUCUU (ssRNA) [Ib_S1_P5E.1_K5.1_C5.1_H5.1_A5.1_[T6A]_[A7G]_F5.1_T5.1]", "READOUT_RELATION": "=", "Kd / nM": 7.36}
{"BINDER": "Ie_S2_P5E.1_K5.1_C5.1_H5.1_A5.1_F5.1_[+9TCC]_T5.1 (ssRNA) RNA: UUUGAUUAAUAUGAUAUCGUUCUUUCUUGUAUUAUUUCCAUUCUUUCUCGAUAUCAUAUUAAUCUUU", "READOUT_RELATION": "=", "Kd / nM": 15.6}
{"BINDER": "UCUCUUAUUAUAUAUUAACUCUCUU (ssRNA) [Id_ii_S1_P4E.3_K4.2_C4.2_[C-2A]_H4.2_A4.1_F4.1_T4.2_[G10A]_[T11C]]", "READOUT_RELATION": "=", "Kd / nM": 44.1}
{"BINDER": "Id_ii_S4_P5E.4_K5.3_C5.2_[C-2T]_H5.3_A5.1_F5.1_T5.2_[T11A]_[A12T] (ssRNA) RNA: UUUGACAACUGAUCGUUCUUUCUUUACACUUAUUAAUUUCUUUCUCGAUCAGUUGUCUUU", "READOUT_RELATION": ">", "Kd / nM": 2300}
